# Study system: P2X7 (UniProt Q99572)
# Sequence (Q99572 1-595): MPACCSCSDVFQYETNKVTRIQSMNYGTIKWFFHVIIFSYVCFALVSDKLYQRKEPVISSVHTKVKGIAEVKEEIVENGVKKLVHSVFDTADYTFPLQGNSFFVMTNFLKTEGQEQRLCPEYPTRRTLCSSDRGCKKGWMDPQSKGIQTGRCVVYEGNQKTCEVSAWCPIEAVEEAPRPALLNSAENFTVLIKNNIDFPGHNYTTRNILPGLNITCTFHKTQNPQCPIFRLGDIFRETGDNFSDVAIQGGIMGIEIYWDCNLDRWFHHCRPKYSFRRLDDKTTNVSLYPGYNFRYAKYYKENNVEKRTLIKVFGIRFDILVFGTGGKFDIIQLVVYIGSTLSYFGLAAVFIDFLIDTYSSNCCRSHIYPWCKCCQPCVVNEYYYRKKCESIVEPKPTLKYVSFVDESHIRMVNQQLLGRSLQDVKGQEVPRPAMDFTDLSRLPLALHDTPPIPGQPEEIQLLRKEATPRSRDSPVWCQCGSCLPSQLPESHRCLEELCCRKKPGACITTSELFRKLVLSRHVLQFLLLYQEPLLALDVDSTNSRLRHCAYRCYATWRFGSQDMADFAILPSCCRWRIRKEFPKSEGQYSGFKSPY
# Assay remarks: P2X7 pKi of Table 1
# Format: cell-based
Measured quantity: pKi

Recorded pKi, per entry:
Molecule: O=C1C[C@@H](c2cccc(F)c2)C(C(=O)NCc2ccccc2Cl)=CN1
pKi: 6.365

Molecule: Cc1cc(Cl)c(OCCO)cc1NC(=O)C1=CNC(=O)C[C@H]1c1ccc(F)cc1
pKi: 7.63

Molecule: COc1cc(NC(=O)C2=CNC(=O)C[C@H]2c2ccc(F)cc2)ccc1F
pKi: 6.11

Molecule: O=C1CC(c2ccc(F)cc2)C(C(=O)Nc2cc3c(cc2Br)OCCO3)=CN1 (stereo not shown)
pKi: 6.69

Molecule: Cc1c(C#N)cccc1NC(=O)C1=CNC(=O)C[C@H]1c1ccc(F)cc1
pKi: 5.815

Molecule: COc1cc(NC(=O)C2=CNC(=O)CC2c2ccc(F)cc2)c(C)cc1F (stereo not shown)
pKi: 7.02

Molecule: Cc1ccccc1CNC(=O)C1=CNC(=O)C[C@H]1c1cccc(F)c1
pKi: 6.17

Molecule: COc1cc(NC(=O)C2=CNC(=O)CC2c2cccc(F)c2)c(Br)cc1C (stereo not shown)
pKi: 6.726

Molecule: COc1cc(C)c(NC(=O)C2=CNC(=O)C[C@H]2c2ccc(Cl)cc2)cc1OC
pKi: 6.165

Molecule: O=C1C[C@@H](c2ccc(F)cc2)C(C(=O)Nc2ccccc2C(F)(F)F)=CN1
pKi: 6.26

a = COc1cc(C)c(NC(=O)C2=C(C)NC(=O)CC2c2ccc(C(F)(F)F)cc2)cc1OC (stereo not shown)
b = Cc1cccc(NC(=O)C2=CNC(=O)C[C@@H]2c2ccc(F)cc2)c1C
### Prompt Parameter check: reported pKi is higher for which label, a or b ? Write down the label attached to your selection.
### Response b
(b: 7.405, a: 5.055)

----------
# Study system: P2X7 (UniProt Q99572)
# Assay remarks: P2X7 pKi of Table 1
# Type: cell-based
Measured quantity: pKi

Molecule: O=C1CC(c2cccc(F)c2)C(C(=O)Nc2cc(O)ccc2Cl)=CN1 (centres unmarked)
Study system: P2X7 (UniProt Q99572)
pKi: 5.395

Molecule: Cc1cc(Cl)c(OCCO)cc1NC(=O)C1=CN(C)C(=O)C[C@H]1c1ccc(F)cc1
Study system: P2X7 (UniProt Q99572)
pKi: 6.835

Molecule: COc1cc(Br)c(NC(=O)C2=CNC(=O)C[C@H]2c2cccc(F)c2)cc1OC
Study system: P2X7 (UniProt Q99572)
pKi: 8.045

Molecule: COc1cc(Br)c(NC(=O)C2=CNC(=O)C[C@@H]2c2ccccc2)cc1OC
Study system: P2X7 (UniProt Q99572)
pKi: 6.155

Molecule: Cc1cc(Cl)c(OCC(C)O)cc1NC(=O)C1=CNC(=O)CC1c1cccc(F)c1 (centres unmarked)
Study system: P2X7 (UniProt Q99572)
pKi: 7.375

Molecule: Cc1cc(F)c(OCCO)cc1NC(=O)C1=CNC(=O)C[C@H]1c1ccc(F)cc1
Study system: P2X7 (UniProt Q99572)
pKi: 7.285

Molecule: COc1ccc(C)c(NC(=O)C2=CNC(=O)C[C@H]2c2cccc(F)c2)c1
Study system: P2X7 (UniProt Q99572)
pKi: 7.695

Molecule: COc1cc(NC(=O)C2=CNC(=O)CC2c2ccc(F)cc2)c(Br)cc1C (centres unmarked)
Study system: P2X7 (UniProt Q99572)
pKi: 6.6
